Biological target: Dihydroorotate dehydrogenase (quinone), mitochondrial (Plasmodium falciparum (isolate 3D7))
Test: PfDHODH enzyme inhibitors, primary screen, biochemical, C-terminal His tag, absorbance 600 nm (AID 1175);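 note: recombinant parasite enzyme with a five histidine tag at its C terminus; test concentration not given here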
Details: DCIP absorbance 600 nm, higher = more signal, called active from +8 up or from −8 down
The source made the active and inactive calls.
Would you kindly list composite z-score for each of these compounds?

Would you please look over these solved cases?
[in] Request the reported composite z-score associated with COC(=O)[C@@H]1CC[C@@H](C)[C@H](c2ccc(Br)cc2)N1
[out] -0.275 (inactive)

[in] Request the reported composite z-score associated with CC(CCN1CCc2nc(-c3ccccc3)c(-c3ccccc3)cc2C1)=NOC[C@@H](O)COCc1ccco1
[out] -0.727 (inactive)

[in] Request the reported composite z-score associated with CC(C)CON=C1C[C@@H](O)[C@@H](O)[C@@H]2[C@@H]3C(=O)N(Cc4ccc5c(c4)OCO5)C(=O)[C@@H]3CC[C@H]12
[out] 0.834 (inactive)

[in] Request the reported composite z-score associated with CO[C@H]1COC(=O)CC=C[C@@H](C)[C@H](NS(=O)(=O)c2ccc(C)cc2)COC(=O)CCC[C@@H]1C
[out] -0.242 (inactive)

[in] Request the reported composite z-score associated with O=C(NN=C1C[C@@H](O)[C@@H](O)[C@@H]2[C@@H]3C(=O)N(C[C@@H]4CCCO4)C(=O)[C@@H]3CC[C@@H]12)OCc1ccccc1
[out] -2.17 (inactive)

Please give composite z-score, item by item, for the list that follows.
1. C[C@@H](ON=C1[C@H]2CCn3c(=O)n(-c4ccccc4)c(=O)n3[C@H]2[C@H](O)[C@@H]2O[C@H]12)c1cn([C@@H]2COC[C@H]2O)nn1
2. CO[C@@H]1COC(=O)[C@H](CCSC)NC(=O)CC=C[C@@H](C)COC(=O)[C@H](C)NC(=O)CC=C[C@H]1C

[out]
1. -0.642 (inactive)
2. 0.262 (inactive)

====

Would you kindly list composite z-score for each of these compounds?
Biological target: Concanavalin-A (Canavalia ensiformis) (UniProt P02866)
Sequence (P02866 whole entry, looked up): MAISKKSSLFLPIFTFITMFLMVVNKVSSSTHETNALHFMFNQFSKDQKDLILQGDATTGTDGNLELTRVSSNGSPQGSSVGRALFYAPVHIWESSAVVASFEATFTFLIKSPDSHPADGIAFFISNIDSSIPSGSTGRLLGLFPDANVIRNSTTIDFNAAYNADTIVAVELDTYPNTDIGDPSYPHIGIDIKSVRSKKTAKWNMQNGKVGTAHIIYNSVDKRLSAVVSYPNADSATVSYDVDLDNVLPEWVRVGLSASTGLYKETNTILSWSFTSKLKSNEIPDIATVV
Test: ConA small-molecule binders, primary screen, artefact control for SMM control protein annotation, biochemical, small-molecule microarray, Alexa647 label, 635 nm (AID 1127);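 note: z combines 667 nm emission intensity with signal-to-noise across three replicate slides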
Settings: ConA-A647 binding fluorescence, higher = more signal
Answers are plain numbers.

Would you please look over these solved cases?
[in] Request the reported composite z-score associated with CCN1C(=O)[C@H]2[C@H]3[C@H](O)[C@H](O)CC(=O)[C@H]3CC[C@H]2C1=O
[out] 0.541

[in] Request the reported composite z-score associated with COc1cccc([C@H]2Oc3ccc(OC)cc3C(=NOC[C@@H](O)COCc3ccco3)[C@@H]2O)c1
[out] -3.36

[in] Request the reported composite z-score associated with O=C1C=C[C@@H](O)[C@@H]2[C@@H]3C(=O)N(c4ccc(F)cc4F)C(=O)[C@@H]3CC[C@@H]12
[out] 0.753

Please turn your attention to the following entry.
[in] Request the reported composite z-score associated with COC(=O)[C@H](C)NC(=O)CCC1CC(OC(=O)NCCc2ccc(F)cc2)CC2(CCCC(COC(=O)NCc3cccc(C(F)(F)F)c3)O2)O1 (some centres undefined)
[out] 0.401

====

Biological target: Calmodulin-1 (Homo sapiens)
Test: CALM1 binders on microarrays, EGTA buffer, profiling panel, biochemical, small-molecule microarray, Cy5-labelled CALM1 (AID 1111);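 note: labelled calmodulin applied in Tris saline Tween buffer holding calcium plus EGTA and DTT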
Conditions: Cy5-CALM1 binding fluorescence, higher = more signal
Label criterion met when composite z-score >= 0.2; otherwise criterion not met.

Take a look at these entries with their results.
[in] In plain terms: is recorded composite z-score at least 0.2 for O=C1CCCC=C1C(O)CCCCBr (stereo not drawn) ?
[out] criterion met

[in] In plain terms: is recorded composite z-score at least 0.2 for Cc1cc2c(nc1C)CCCN2CC(O)CN1CCCc2nc(C)c(C)cc21 ?
[out] criterion met

[in] In plain terms: is recorded composite z-score at least 0.2 for CC(C)CON=C1C[C@@H](O)[C@@H](O)[C@@H]2[C@@H]3C(=O)N(C[C@@H]4CCCO4)C(=O)[C@@H]3CC[C@@H]12 ?
[out] criterion not met

[in] In plain terms: is recorded composite z-score at least 0.2 for CC(C)(C)N1C(=O)[C@H]2[C@H]3[C@H](O)[C@H](O)CC(=NOCc4ccccc4)[C@H]3CC[C@H]2C1=O ?
[out] criterion not met

[in] In plain terms: is recorded composite z-score at least 0.2 for CCOC(=O)NN=C1C[C@@H](O)[C@@H](O)[C@@H]2[C@@H]3C(=O)N([C@@H](C)c4ccccc4)C(=O)[C@@H]3CC[C@H]12 ?
[out] criterion not met

More entries:
[in] In plain terms: is recorded composite z-score at least 0.2 for O=C1[C@H]2[C@H]3[C@H](O)[C@H](O)CC(=NOC[C@@H](O)COCc4ccco4)[C@H]3CC[C@H]2C(=O)N1Cc1ccccc1 ?
[out] criterion not met

[in] In plain terms: is recorded composite z-score at least 0.2 for COc1ccc(O[C@H]2C=C[C@@H](c3ccccc3)O[C@@H]2CON=C(C)CCN2CCc3nc(-c4ccccc4)c(-c4ccccc4)cc3C2)cc1 ?
[out] criterion met

[in] In plain terms: is recorded composite z-score at least 0.2 for C#CCCCON=C1[C@H]2CCn3c(=O)n(-c4ccccc4)c(=O)n3[C@H]2[C@H](O)[C@@H]2O[C@H]12 ?
[out] criterion not met

Cited source for all entries: PubChem BioAssay
